target: T1, monkey CD3ε/δ-His (monkey, UniProt Q95LI5 22-117; Q95LI8 22-105); experiment: ELISA, coated antigen, hybridoma screening
T1 construct: Bought recombinant heterodimer with His tag
T1 sequence (Q95LI5 22-117, stated change not applied, form in doubt, chain 1 of 2): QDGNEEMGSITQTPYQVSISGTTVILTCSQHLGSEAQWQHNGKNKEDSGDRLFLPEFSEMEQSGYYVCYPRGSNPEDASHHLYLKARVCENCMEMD
T1 sequence (Q95LI8 22-105, stated change not applied, form in doubt, chain 2 of 2): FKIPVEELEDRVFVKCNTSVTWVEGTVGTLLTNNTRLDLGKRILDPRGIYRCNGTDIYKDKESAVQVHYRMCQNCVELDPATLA
Quick reference for OD450 among some binders
// return numeric value only (unit: OD450, not printed)

Worked examples, 2 binders total:
{"BINDER": "5-40.21 murine hybridoma antibody (supernatant) (antibody, V domains shown, Tested as hybridoma supernatant) VH: QVQLQQPGSELVRPGASVKLSCKASGYTFTSYWMHWVKQRPGQGLEWIGNTYPGSGSTNYDEKFKSKATLTVDSSSSTAYMQLSSLTSEDSAVYYCTRDRYGVYYFDYWGQGTTLTVSS VL: DIVMSQSPSSLAVSAGEKVTMSCKSSQSLLNSRTRKNYLAWYQQKPGQSPKLLIYWASTRESGVPDRFSGSGSGTDFTLTISSVQAEDLAVYYCTQSYNLRTFGGGTKLEIK", "UNIT ABBREVIATION": "OD450", "OD450": 1.82}
{"BINDER": "6-35.22 murine hybridoma antibody (supernatant) (antibody, V domains shown, Tested as hybridoma supernatant) VH: EVKLVESGGGLVQPGASLSLSCAASGFTFTDYYMSWVRQPPGKALEWLAMSRNKAKGHTIEYSSSVKGRFTISRDNSQSILYLQMNALRAEDSATYYCARDTYESYDGYFDVWGAGTTVIVSS VL: DIVMSQSPSSLAVSAGETVTMSCKSSQSLFNSRSRKNYLAWYQQKPGQTPKLLIYWASIRESGVPDRFTGSGSGTDFTLTISSVQAEDLAVYYCKQSYYLYTFGSGTKLEIK", "UNIT ABBREVIATION": "OD450", "OD450": 1.74}

**Query** Fill in: OD450 of 7-35.6 murine hybridoma antibody (supernatant) (antibody, V domains shown, Tested as hybridoma supernatant) VH: EVQLVESGGGLVQPKGSLKLSCAASGFTFNTYAMNWVRQAPGKGLEWVGRIRSKINNYATYYGDSVKDRFTISRDDSQSMFYLQMNNLKTEDTAMYYCVIHENYGSISWFAYWGQGTLVTVSA VL: QAVVTQESTLTTSPGETVTLTCRSSTGAVTTSNYANWVQEKPDHLFTGLIGGTNNRAPGVPARFSGSLIGDKAALTITGAQTEDEAIYFCALWYSNHWVFGGGTKLTVL is ___
**Result** 1.46

Where do these numbers come from? They come from patent US20250136687A1.
